Origin of the recorded values: ChEMBL document CHEMBL4689842

system: U2OS; assay: Multiplex assay against U2OS; assay type: toxicity, cell-based; details: human, 48 h, 1 µM, compound concentration 1 uM, replicate 1
measure: Population Normal (%)

>>> number("CNc1cc(Oc2cc(C(=O)Nc3cc(N4CCN(C)CC4)cc(C(F)(F)F)c3)ccc2C)ncn1")
93
>>> number("CCCS(=O)(=O)c1nc(NC2CC2)cc(-c2ccc3c(ccn3C3CC(C)(C)NC(C)(C)C3)c2)n1")
93
>>> number("Cc1ccc(C(=O)Nc2cccc(C(F)(F)F)c2)cc1Nc1nc(-c2cccnc2)nc2c1cnn2C")
95
>>> number("O=C(Nc1ccc(Cl)cc1)Nc1cccc(-c2cccc(N3CCCC3)n2)c1")
93
>>> number("CCOc1cc(C(=O)N2CCC(N3CCN(C)CC3)CC2)ccc1Nc1ncc2c(n1)N(C1CCCC1)c1ccccc1C(=O)N2C")
96
>>> number("S=C(NCCCc1c[nH]cn1)NCCCN(Cc1ccc(Cl)c(Cl)c1)c1ccc(Br)cn1")
91
>>> number("O=C(Nc1ccc(-n2nc(-c3cccnc3)cc2C(F)(F)F)cn1)c1ccc(-c2ccccc2)c(F)c1")
94
